Target: T1, human NMI (N-myc Interacting protein) (human, UniProt Q13287 1-307, limits assumed)
T1 construct: Immunogen and ELISA coating antigen; also called hNMI; antigen 1
T1 sequence (looked up): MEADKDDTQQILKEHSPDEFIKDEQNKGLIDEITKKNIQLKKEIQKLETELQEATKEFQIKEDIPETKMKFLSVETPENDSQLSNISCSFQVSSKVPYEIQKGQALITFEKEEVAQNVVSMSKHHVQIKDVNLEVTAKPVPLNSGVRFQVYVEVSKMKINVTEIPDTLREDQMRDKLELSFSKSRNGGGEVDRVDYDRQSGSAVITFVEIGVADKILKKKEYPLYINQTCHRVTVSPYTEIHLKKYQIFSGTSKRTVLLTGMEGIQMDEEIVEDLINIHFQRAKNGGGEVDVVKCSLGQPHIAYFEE
Test: I-ELISA, hNMI coated 1 ug/mL; antibody 312.5 ng/mL
measurement type: OD450
Please don't drop the unit; write it after the number.

binder	measurement type	observed value
39B4 (antibody, V domains shown, Rabbit monoclonal antibody; also called 39B4-1; 39B4-1-biotin (biotin-labelled form)) VH: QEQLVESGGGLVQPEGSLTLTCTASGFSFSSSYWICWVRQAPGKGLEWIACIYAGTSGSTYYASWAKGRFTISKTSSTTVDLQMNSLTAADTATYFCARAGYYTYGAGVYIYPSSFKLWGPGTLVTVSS VL: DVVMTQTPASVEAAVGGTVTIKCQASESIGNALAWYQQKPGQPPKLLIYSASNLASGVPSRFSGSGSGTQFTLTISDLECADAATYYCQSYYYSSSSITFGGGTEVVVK	OD450	1.99 OD450
B-8 (antibody, V domains shown, Rabbit monoclonal antibody; also called B8-1; B-8-biotin (biotin-labelled form)) VH: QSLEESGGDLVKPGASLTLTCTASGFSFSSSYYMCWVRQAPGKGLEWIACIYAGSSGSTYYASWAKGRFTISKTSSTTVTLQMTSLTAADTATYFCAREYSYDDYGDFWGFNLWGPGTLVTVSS VL: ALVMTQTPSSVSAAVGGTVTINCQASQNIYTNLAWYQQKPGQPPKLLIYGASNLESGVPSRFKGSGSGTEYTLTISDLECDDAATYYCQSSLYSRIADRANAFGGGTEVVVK	OD450	1.67 OD450
94C4 (antibody, V domains shown, Rabbit monoclonal antibody; also called 94C4-1; 94C4-1-biotin (biotin-labelled form)) VH: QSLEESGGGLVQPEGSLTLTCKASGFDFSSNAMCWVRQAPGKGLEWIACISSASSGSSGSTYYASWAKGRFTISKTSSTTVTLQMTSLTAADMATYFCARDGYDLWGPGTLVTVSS VL: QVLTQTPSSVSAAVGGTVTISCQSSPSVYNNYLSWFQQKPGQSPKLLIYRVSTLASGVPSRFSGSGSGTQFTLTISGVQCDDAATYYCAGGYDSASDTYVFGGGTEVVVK	OD450	2.1 OD450
240B10-1 (antibody, V domains shown, Rabbit monoclonal antibody; also called 240B10-1-biotin (biotin-labelled form)) VH: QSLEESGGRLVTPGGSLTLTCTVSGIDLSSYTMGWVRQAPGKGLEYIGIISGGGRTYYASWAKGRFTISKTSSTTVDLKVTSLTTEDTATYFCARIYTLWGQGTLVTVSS VL: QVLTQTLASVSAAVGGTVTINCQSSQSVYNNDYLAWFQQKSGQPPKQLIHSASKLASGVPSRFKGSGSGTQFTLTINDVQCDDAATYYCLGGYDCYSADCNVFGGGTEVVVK	OD450	2.19 OD450

Q: What value of OD450 has been recorded for this entry: 98G10 (antibody, V domains shown, Rabbit monoclonal antibody; also called 98G10-1; 98G10-1-biotin (biotin-labelled form)) VH: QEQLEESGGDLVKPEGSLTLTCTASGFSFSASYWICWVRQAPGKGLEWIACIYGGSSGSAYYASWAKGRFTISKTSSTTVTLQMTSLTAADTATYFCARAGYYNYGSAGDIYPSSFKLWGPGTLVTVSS VL: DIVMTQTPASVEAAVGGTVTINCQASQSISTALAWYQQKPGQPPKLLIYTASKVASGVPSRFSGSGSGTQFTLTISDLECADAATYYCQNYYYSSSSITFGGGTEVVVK
Ans: 1.97 OD450
